Reported EC50 values for a set of molecules
Molecular target: human RXFP1 (Homo sapiens)
Construct: expressed in transfected cells
Sequence (Q9HBX9 1-757): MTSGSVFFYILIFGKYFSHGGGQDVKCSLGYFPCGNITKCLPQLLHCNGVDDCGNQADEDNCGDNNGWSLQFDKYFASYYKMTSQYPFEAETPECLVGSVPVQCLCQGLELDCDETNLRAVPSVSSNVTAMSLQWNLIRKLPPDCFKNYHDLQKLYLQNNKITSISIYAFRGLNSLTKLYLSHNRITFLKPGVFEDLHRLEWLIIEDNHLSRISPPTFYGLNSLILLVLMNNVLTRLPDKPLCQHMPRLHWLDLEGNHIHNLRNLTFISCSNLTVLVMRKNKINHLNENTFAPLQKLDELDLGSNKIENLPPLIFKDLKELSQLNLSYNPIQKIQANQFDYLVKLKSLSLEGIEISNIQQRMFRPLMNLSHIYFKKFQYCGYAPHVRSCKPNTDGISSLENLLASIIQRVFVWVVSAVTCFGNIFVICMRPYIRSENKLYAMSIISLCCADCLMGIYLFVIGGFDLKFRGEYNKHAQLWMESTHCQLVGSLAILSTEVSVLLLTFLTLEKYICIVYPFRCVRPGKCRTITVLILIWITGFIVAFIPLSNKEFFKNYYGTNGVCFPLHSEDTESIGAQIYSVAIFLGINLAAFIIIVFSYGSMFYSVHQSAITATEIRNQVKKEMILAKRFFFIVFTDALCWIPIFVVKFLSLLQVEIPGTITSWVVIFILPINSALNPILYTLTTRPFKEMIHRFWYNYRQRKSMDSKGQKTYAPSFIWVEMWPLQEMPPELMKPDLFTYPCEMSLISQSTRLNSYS
Assay: RXFP1 cAMP assay (hRXFP1 HEK293 cAMP assay, HTRF)
Type: cell-based
Conditions: HEK293 cells stably expressing human RXFP1, 30 min at room temperature, read-out: cAMP hRXFP1 HEK293 Assay EC50
Your answer should be a plain number; it is taken to be in µM.

(Q) Reported EC50, molecule `COc1ccc(C2=NO[C@H]3COC[C@@H]23)cc1C(=O)N[C@H]1[C@@H](C(=O)Nc2ccc(F)c(C(F)(F)F)c2)[C@H]2CC[C@@H]1/C2=C\C(C)C` : ____
(A) 0.0031

(Q) Proceed to COc1ccc(C2=NOC3COCC23)cc1C(=O)N[C@H]1[C@@H](C(=O)NCc2c(C)noc2C)[C@H]2CC[C@@H]1/C2=C\C1CC1 (some centres unmarked)
(A) 0.477

(Q) One more molecule: O=C(NC1CCC1)O[C@@H](c1ccc(F)c(-c2ccc(OCCO)c(C(=O)N[C@@H]3C4CCC(/C4=C/C(F)(F)F)[C@@H]3C(=O)Nc3ccc(F)c(C(F)(F)F)c3)c2)c1)C(F)(F)F (some centres unmarked)
(A) 0.013

(Q) Continue with COc1cc(F)c(F)cc1C(=O)N[C@@H]1C2CCC(/C2=C/c2ccccc2C#N)[C@@H]1C(=O)Nc1ccc(F)c(C(F)(F)F)c1 (some centres unmarked)
(A) 3.2

(Q) How about COc1ccc(C2=NOC(C)(CO)C2)cc1C(=O)N[C@H]1[C@@H](C(=O)Nc2ccc(F)c(C(F)(F)F)c2)[C@H]2CC[C@@H]1C2=CC1CC1 (single isomer, unassigned) [compound 571] ?
(A) 0.0653

(Q) Now this one: COc1ccc(C2=NOC3CC(C(C)O)CC23)cc1C(=O)N[C@H]1[C@@H](C(=O)Nc2ccc(F)c(C(F)(F)F)c2)[C@H]2CC[C@@H]1/C2=C\C1CC1 (some centres unmarked) [compound 845]
(A) 0.0013

(Q) Another molecule: `COc1ccc(C2=NO[C@H]3C[C@H](CO)CN23)cc1C(=O)N[C@H]1[C@@H](C(=O)Nc2ccc(F)c(C(F)(F)F)c2)[C@H]2CC[C@@H]1/C2=C\C1CCCC1`
(A) 0.0016

(Q) Try this molecule next: COc1ccc(-c2cc(C(O)C(=O)O)ccc2F)cc1C(=O)N[C@@H]1C2CCC(/C2=C/C2CC2)[C@@H]1C(=O)Nc1ccc(F)c(C(F)(F)F)c1 (some centres unmarked)
(A) 0.006

(Q) What do you get for COc1ccc(-c2ccc(C(=O)NCCN3CCOCC3)cc2F)cc1C(=O)N[C@@H]1C2CCC(/C2=C/c2ccccc2)[C@@H]1C(=O)Nc1ccc(F)c(C(F)(F)F)c1 (some centres unmarked) ?
(A) 0.076

(Q) Query COc1c(F)cc(C2=NOC3CC(C)(CO)CC23)cc1C(=O)N[C@H]1[C@@H](C(=O)N[C@H](C)C2(C)CC2)[C@H]2CC[C@@H]1/C2=C\C1CC1 (some centres unmarked) next
(A) 0.001

(Q) Here is the next molecule: COc1cc(F)c(F)cc1C(=O)N[C@@H]1C2CCC(/C2=C/c2cccc(C)c2)[C@@H]1C(=O)Nc1ccc(F)c(C(F)(F)F)c1 (some centres unmarked)
(A) 0.094
